- Assay procedure: Hepatocyte stability assay, mouse hepatocytes
- Assay type: in vitro ADME
- Measurement setup: mouse, cryopreserved hepatocytes, 1 μM compound, 0.5 million cells/mL, 37° C., read-out: MH +/− NADPH: Clint (μL/min/million cells)
Reported metric: hepatocyte CLint at 1 μM

Worked examples, 3 compounds total:
CC(Oc1ccc(C(C)(C)c2cc(Cl)c(OCCCl)c(C#N)c2)cc1)c1ccnc(NS(C)(=O)=O)n1 (centres unmarked) = < 4 µL/min/1e6 cells
CC(C)(c1ccc(OCc2ncc(S(C)(=O)=O)[nH]2)cc1)c1cc(Cl)c(OCCCl)c(C#N)c1 = 4 to 18 µL/min/1e6 cells
CC(C)(c1ccc(OCc2ccnc(NS(C)(=O)=O)c2)cc1)c1cc(Cl)c(OCCCl)c(C#N)c1 = 4 to 18 µL/min/1e6 cells

Incoming: For C[C@H](Oc1ccc(C(C)(C)c2cc(Cl)c(OCCCl)c(C#N)c2)cc1)c1ccnc(NS(C)(=O)=O)n1 (single isomer, unassigned) , what is its reported hepatocyte CLint at 1 μM?
Outgoing: < 4 µL/min/1e6 cells

Incoming: For CC(C)(c1ccc(OCc2coc(S(C)(=O)=O)c2)cc1)c1cc(Cl)c(OCCCl)c(C#N)c1 , what is its reported hepatocyte CLint at 1 μM?
Outgoing: < 4 µL/min/1e6 cells

Incoming: For CC(C)(c1ccc(OCc2ncoc2S(C)(=O)=O)cc1)c1cc(Cl)c(OCCCl)c(C#N)c1 , what is its reported hepatocyte CLint at 1 μM?
Outgoing: ≥ 18 µL/min/1e6 cells

Incoming: For CC(Oc1ccc(C(C)(O)c2cc(Cl)c(OCCCl)c(C#N)c2)cc1)c1ocnc1S(C)(=O)=O (centres unmarked) , what is its reported hepatocyte CLint at 1 μM?
Outgoing: ≥ 18 µL/min/1e6 cells

Incoming: For CC(C)(c1ccc(OCc2nc(S(C)(=O)=O)cs2)cc1)c1cc(Cl)c(OCCCl)c(C#N)c1 , what is its reported hepatocyte CLint at 1 μM?
Outgoing: 4 to 18 µL/min/1e6 cells

Incoming: For CC(Oc1ccc(C(C)(C)c2cc(Cl)c(OCCCl)c(Cl)c2)cc1)c1[nH]cnc1S(C)(=O)=O (centres unmarked) , what is its reported hepatocyte CLint at 1 μM?
Outgoing: 4 to 18 µL/min/1e6 cells

Incoming: For CC(C)(c1ccc(OCc2cc(NS(C)(=O)=O)ccn2)cc1)c1cc(Cl)c(OCCCl)c(C#N)c1 , what is its reported hepatocyte CLint at 1 μM?
Outgoing: < 4 µL/min/1e6 cells

Incoming: For CC(Oc1ccc(C(C)(C)c2cc(Cl)c(OCCCl)c(C#N)c2)cc1)c1coc(S(C)(=O)=O)n1 (centres unmarked) , what is its reported hepatocyte CLint at 1 μM?
Outgoing: ≥ 18 µL/min/1e6 cells

Incoming: For CC(=O)Nc1nc(COc2ccc(C(C)(C)c3cc(Cl)c(OCCCl)c(C#N)c3)cc2)co1 , what is its reported hepatocyte CLint at 1 μM?
Outgoing: ≥ 18 µL/min/1e6 cells

Incoming: For CC(C)(c1ccc(OCc2ncc(S(C)(=O)=O)s2)cc1)c1cc(Cl)c(OCCCl)c(C#N)c1 , what is its reported hepatocyte CLint at 1 μM?
Outgoing: < 4 µL/min/1e6 cells

Incoming: For CC(C)(c1ccc(OCc2cnc(C(N)=O)o2)cc1)c1cc(Cl)c(CCCCl)c(C#N)c1 , what is its reported hepatocyte CLint at 1 μM?
Outgoing: ≥ 18 µL/min/1e6 cells

Incoming: For CC(C)(c1ccc(OCc2ccnc(C#N)n2)cc1)c1cc(Cl)c(OCCCl)c(C#N)c1 , what is its reported hepatocyte CLint at 1 μM?
Outgoing: 4 to 18 µL/min/1e6 cells

Incoming: For Cc1nc(COc2ccc(C(C)(C)c3cc(Cl)c(OCCCl)c(C#N)c3)cc2)cc(NS(C)(=O)=O)n1 , what is its reported hepatocyte CLint at 1 μM?
Outgoing: 4 to 18 µL/min/1e6 cells

Incoming: For Cc1cc(C(C)(C)c2ccc(OC(C)c3ocnc3S(C)(=O)=O)cc2)cc(C#N)c1OCCCl (centres unmarked) , what is its reported hepatocyte CLint at 1 μM?
Outgoing: ≥ 18 µL/min/1e6 cells

Incoming: For COc1ncc(COc2ccc(C(C)(C)c3cc(Cl)c(OCCCl)c(C#N)c3)cc2)o1 , what is its reported hepatocyte CLint at 1 μM?
Outgoing: 4 to 18 µL/min/1e6 cells

Incoming: For CC(C)(c1ccc(OCc2nc(NS(C)(=O)=O)nc3c2CCOC3)cc1)c1cc(Cl)c(OCCCl)c(C#N)c1 , what is its reported hepatocyte CLint at 1 μM?
Outgoing: ≥ 18 µL/min/1e6 cells

Incoming: For CC(C)(c1ccc(OCc2coc(NS(C)(=O)=O)n2)cc1)c1cc(Cl)c(OCCCl)c(Cl)c1 , what is its reported hepatocyte CLint at 1 μM?
Outgoing: < 4 µL/min/1e6 cells
